target: Bcl-2 (Homo sapiens (Human), UniProt P10415); experiment: Bcl-2 competition binding (fluorescence polarization) assay; details: fluorescein labeled BH3 peptide 15 nM, Bcl-2 protein 30 nM, 3 hours of incubation at room temperature
Sequence (P10415 whole entry): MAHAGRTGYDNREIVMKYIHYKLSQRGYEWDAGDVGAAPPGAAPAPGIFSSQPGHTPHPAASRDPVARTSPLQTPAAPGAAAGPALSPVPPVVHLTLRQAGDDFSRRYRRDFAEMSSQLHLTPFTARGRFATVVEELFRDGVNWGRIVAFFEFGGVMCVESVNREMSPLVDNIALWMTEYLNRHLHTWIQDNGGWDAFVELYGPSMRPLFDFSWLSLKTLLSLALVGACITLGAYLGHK
Structures can show the parent of a compound that is named as a salt.
For each record, write down the corresponding log10(IC50).
A difference of one corresponds to tenfold IC50; all values are log10 with IC50 in nM.

Enquiry: Give the reported log10(IC50) for CC(C)Oc1ccccc1[C@@H]1CCCN1C1CC2(CCN(c3ccc(C(=O)NS(=O)(=O)c4ccc(NCC5CCOCC5)c([N+](=O)[O-])c4)c(N4c5cc6cc[nH]c6nc5O[C@H]5COCC[C@H]54)c3)CC2)C1 (system: Bcl-2 (Homo sapiens (Human), UniProt P10415)).
Return: -0.47

Enquiry: What is its log10(IC50) for Bcl-2 (Homo sapiens (Human), UniProt P10415)? Entry: CC(C)Oc1ccccc1[C@@H]1CCCN1C1CC2(CCN(c3ccc(C(=O)NS(=O)(=O)c4ccc(NCC5CCOCC5)c([N+](=O)[O-])c4)c(N4c5cc6cc[nH]c6nc5O[C@@H]5CCOC[C@H]54)c3)CC2)C1
Return: -1.00

Enquiry: API: value(readout= log10(IC50), system= Bcl-2 (Homo sapiens (Human), UniProt P10415), query= CC1(C)C[C@@H](c2ccccc2[C@@H]2CCCN2C2CC3(CCN(c4ccc(C(=O)NS(=O)(=O)c5ccc(NCC6CCOCC6)c([N+](=O)[O-])c5)c(N5c6cc7cc[nH]c7nc6O[C@@H]6COC[C@H]65)c4)CC3)C2)CCO1 )
Return: 1.49

Enquiry: Param readout = log10(IC50); param system = Bcl-2 (Homo sapiens (Human), UniProt P10415); param query = Cc1ccccc1[C@H]1COCCCN1C1CC2(CCN(c3ccc(C(=O)NS(=O)(=O)c4ccc(NCC5CCOCC5)c([N+](=O)[O-])c4)c(N4c5cc6cc[nH]c6nc5O[C@@H]5COC[C@H]54)c3)CC2)C1 ; response: value
Return: -0.25

Enquiry: Record lookup: for Bcl-2 (Homo sapiens (Human), UniProt P10415), what log10(IC50) belongs to O=C(NS(=O)(=O)c1ccc(NCC2CCOCC2)c([N+](=O)[O-])c1)c1ccc(N2CCC3(CC2)CC(N2CCC[C@H]2c2ccccc2Cl)C3)cc1N1c2cc3cc[nH]c3nc2O[C@@H]2COC[C@H]21 [Example 23, hydrochloride] ?
Return: -0.23

Enquiry: Please tell me: log10(IC50) of CC(C)Oc1ccccc1[C@@H]1CCCN1C1CC2(CCN(c3ccc(C(=O)NS(=O)(=O)c4ccc(NCC5CCOCC5)c([N+](=O)[O-])c4)c(N4c5cc6cc[nH]c6nc5O[C@H]5COCC[C@@H]54)c3)CC2)C1 [Example 62, hydrochloride] , system Bcl-2 (Homo sapiens (Human), UniProt P10415)?
Return: -0.39

Enquiry: Request - read-out log10(IC50) | tested on Bcl-2 (Homo sapiens (Human), UniProt P10415) | compound CC(C)(C#N)c1ccccc1[C@@H]1CCCN1C1CC2(CCN(c3ccc(C(=O)NS(=O)(=O)c4ccc(NCC5CCOCC5)c([N+](=O)[O-])c4)c(N4c5cc6cc[nH]c6nc5O[C@@H]5COC[C@H]54)c3)CC2)C1 [Example 19, hydrochloride]
Return: -1.00

Enquiry: What reported log10(IC50) corresponds to N#Cc1ccccc1[C@@H]1CCCN1C1CC2(CCN(c3ccc(C(=O)NS(=O)(=O)c4ccc(NCC5CCOCC5)c([N+](=O)[O-])c4)c(N4c5cc6cc[nH]c6nc5O[C@@H]5COC[C@H]54)c3)CC2)C1 on Bcl-2 (Homo sapiens (Human), UniProt P10415)?
Return: -0.15

Enquiry: Bcl-2 (Homo sapiens (Human), UniProt P10415) / log10(IC50) / O=C(NS(=O)(=O)c1ccc(NCC2CCOCC2)c([N+](=O)[O-])c1)c1ccc(N2CCC3(CC2)CC(N2CCC[C@H]2c2cccc(Cl)c2)C3)cc1N1c2cc3cc[nH]c3nc2O[C@@H]2COC[C@H]21 : value?
Return: 0.15
